Values from paper PMC5352758

biological target: 20Si (immunoproteasome) (Homo sapiens, UniProt P28062+P28065+P40306); construct: purchased www.vivabioscience.com (Basepoint Business Centre, United Kingdom); experiment: SPRI measurement of ability of immobilized potential receptor to bind 20Si; assay type: binding; details: receptor at 1, 10, 100 μg mL−1, 20Si 2.8 μg mL−1, SPRI signal increase of less than 20% = lack of ability to bind
Where a SMILES comes first, the peptide text is derived from it. [ ]: non-standard residue; d: D form. hPhe = N[C@@H](CCc1ccccc1)C(=O)O; Nle = CCCC[C@H](N)C(=O)O
Measured quantity: Ability to bind 20Si

1. CC(C)C[C@H](N)C(=O)N[C@@H](Cc1ccccc1)C(=O)N[C@@H](Cc1ccccc1)C(=O)O [compound 4, H-Leu-Phe–Phe-OH] (H-Leu-Phe-Phe-OH)    – (−, lack of bonding)
2. CC(C)C[C@H](NC(=O)[C@H](CC(C)C)NC(=O)[C@@H](N)Cc1ccccc1)C(=O)O [compound 5, H-Phe-Leu–Leu-OH] (H-Phe-Leu-Leu-OH)    + (+, bound)
3. CC(C)C[C@H](NC(=O)[C@@H](N)Cc1ccccc1)C(=O)N[C@@H](Cc1ccccc1)C(=O)O [compound 1, H-Phe-Leu-Phe-OH] (H-Phe-Leu-Phe-OH)    + (+, bound)
4. N[C@@H](Cc1ccccc1)C(=O)N[C@@H](Cc1ccccc1)C(=O)O [compound 9, H-Phe-Phe-OH] (H-Phe-Phe-OH)    – (−, lack of bonding)
5. N[C@@H](Cc1ccccc1)C(=O)N[C@@H](Cc1ccccc1)C(=O)N[C@@H](Cc1ccccc1)C(=O)O [compound 2, H-Phe-Phe–Phe-OH] (H-Phe-Phe-Phe-OH)    + (+, bound)
6. N[C@@H](Cc1ccccc1)C(=O)N[C@@H](CCc1ccccc1)C(=O)N[C@@H](Cc1ccccc1)C(=O)O [compound 7, H-Phe-hPhe-Phe-OH] (H-Phe-[hPhe]-Phe-OH)    + (+, bound)
7. C[C@H](NC(=O)[C@@H](N)Cc1ccccc1)C(=O)N[C@@H](Cc1ccccc1)C(=O)O [compound 3, H-Phe-Ala-Phe-OH] (H-Phe-Ala-Phe-OH)    + (+, bound)
8. CC(C)C[C@H](NC(=O)[C@H](Cc1ccccc1)NC(=O)[C@@H](N)CC(C)C)C(=O)O [compound 10, H-Leu-Phe-Leu-OH] (H-Leu-Phe-Leu-OH)    + (+, bound)
9. CC(C)C[C@H](NC(=O)[C@@H](N)CC(C)C)C(=O)N[C@@H](Cc1ccccc1)C(=O)O [compound 8, H-Leu-Leu-Phe-OH] (H-Leu-Leu-Phe-OH)    + (+, bound)
10. CCCC[C@H](NC(=O)[C@H](CC(C)C)NC(=O)[C@@H](N)Cc1ccccc1)C(=O)O [compound 11, H-Phe-Leu-nLeu-OH] (H-Phe-Leu-[Nle]-OH)    + (+, bound)
11. CC(C)C[C@H](NC(=O)[C@H](Cc1ccccc1)NC(=O)[C@@H](N)Cc1ccccc1)C(=O)O [compound 6, H-Phe-Phe-Leu-OH] (H-Phe-Phe-Leu-OH)    – (−, lack of bonding)

====

test system: trypsin; assay: Inhibition of amidolytic activity of trypsin (chromogenic substrate); type: biochemical; conditions: substrate Bzl-L-Arg-pNA.HCl 8 mM, borane buffer pH 7.5, trypsin 0.4 units mL−1, 3 min pre-incubation at 37 °C, 20 min incubation, absorbance 405 nm, average of triplicate
Where a SMILES comes first, the peptide text is derived from it. [ ]: non-standard residue; d: D form. hPhe = N[C@@H](CCc1ccccc1)C(=O)O; Nle = CCCC[C@H](N)C(=O)O
Measured quantity: IC50

1) CC(C)C[C@H](NC(=O)[C@@H](N)CC(C)C)C(=O)N[C@@H](Cc1ccccc1)C(=O)O [compound 8, H-Leu-Leu-Phe-OH] (H-Leu-Leu-Phe-OH)    0.079 mM
2) N[C@@H](Cc1ccccc1)C(=O)N[C@@H](CCc1ccccc1)C(=O)N[C@@H](Cc1ccccc1)C(=O)O [compound 7, H-Phe-hPhe-Phe-OH] (H-Phe-[hPhe]-Phe-OH)    0.044 mM
3) CCCC[C@H](NC(=O)[C@H](CC(C)C)NC(=O)[C@@H](N)Cc1ccccc1)C(=O)O [compound 11, H-Phe-Leu-nLeu-OH] (H-Phe-Leu-[Nle]-OH)    18 mM
4) CC(C)C[C@H](NC(=O)[C@H](Cc1ccccc1)NC(=O)[C@@H](N)CC(C)C)C(=O)O [compound 10, H-Leu-Phe-Leu-OH] (H-Leu-Phe-Leu-OH)    12 mM
